testedTarget: T1, TRAIL (human, UniProt P50591 114-281)
T1 construct: also called TNF-related apoptosis inducing ligand
T1 sequence (P50591 114-281 limits assumed): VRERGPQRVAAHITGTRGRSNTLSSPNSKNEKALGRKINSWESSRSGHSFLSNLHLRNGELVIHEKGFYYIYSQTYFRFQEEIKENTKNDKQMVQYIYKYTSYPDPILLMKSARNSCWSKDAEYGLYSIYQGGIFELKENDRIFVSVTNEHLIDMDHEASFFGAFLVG
testMethodNotes: phage ELISA
propertyLabel: binding result

[[record]]
binder = "I037E07 (scFv) scFv: QVQLVQSGAEVKKPGASVKVSCKASGYTFTNYGITWVRQAPGQGLEWMGWISAYNGNRNYAQKLQGRVTMTTDTSTSTAYMELRSLRSDDTAVYYCVRDGIDILLVPAALMDVWGRGTMVTVSSGGGGSGGGGSGGGGSQSVLTQPASVSGSPGQSITISCTGTSSDVGGYNYVSWYQQHPGKAPKLMIYEGSKRPSGVSNRFSGSKSGNTASLTISGLQAEDEADYYCSSYTTRSTRVFGGGTKLTVLG"
propertylabel = "binding result"
reported = "no binding"

[[record]]
binder = "I007H08 (scFv) scFv: QVQLQQSGPGLVKPSQILSLTCAISGDSVASNGAAWNWIRQSPSRGLEWLGRTYYRSKWYVDYAVSVKSRITINPDTSKNQFSLQLNSVTPEDTAVYYCARDRYDILTGYYYYGMDVWGQGTMVTVSSGGGGSGGGGSGGGGSQSALTQPASVSGSRGQSITISCTGTTGDVGGYDYVSWYQQHPGKAPKLLIYGNSNRPSGVPDRFSASKSGNTASLTISGLQAEDEADYFCNTYAPPGIIMFGGGTKLTVLG"
propertylabel = "binding result"
reported = "no binding"


The values you see were collected from patent US20110293610A1.
